Target Entity: 3T3 cells that over-express human cMet (Homo sapiens, UniProt P08581)
Construct: expressed in transfected cells; host or cells: 3T3 cells
Sequence (P08581 25-1390): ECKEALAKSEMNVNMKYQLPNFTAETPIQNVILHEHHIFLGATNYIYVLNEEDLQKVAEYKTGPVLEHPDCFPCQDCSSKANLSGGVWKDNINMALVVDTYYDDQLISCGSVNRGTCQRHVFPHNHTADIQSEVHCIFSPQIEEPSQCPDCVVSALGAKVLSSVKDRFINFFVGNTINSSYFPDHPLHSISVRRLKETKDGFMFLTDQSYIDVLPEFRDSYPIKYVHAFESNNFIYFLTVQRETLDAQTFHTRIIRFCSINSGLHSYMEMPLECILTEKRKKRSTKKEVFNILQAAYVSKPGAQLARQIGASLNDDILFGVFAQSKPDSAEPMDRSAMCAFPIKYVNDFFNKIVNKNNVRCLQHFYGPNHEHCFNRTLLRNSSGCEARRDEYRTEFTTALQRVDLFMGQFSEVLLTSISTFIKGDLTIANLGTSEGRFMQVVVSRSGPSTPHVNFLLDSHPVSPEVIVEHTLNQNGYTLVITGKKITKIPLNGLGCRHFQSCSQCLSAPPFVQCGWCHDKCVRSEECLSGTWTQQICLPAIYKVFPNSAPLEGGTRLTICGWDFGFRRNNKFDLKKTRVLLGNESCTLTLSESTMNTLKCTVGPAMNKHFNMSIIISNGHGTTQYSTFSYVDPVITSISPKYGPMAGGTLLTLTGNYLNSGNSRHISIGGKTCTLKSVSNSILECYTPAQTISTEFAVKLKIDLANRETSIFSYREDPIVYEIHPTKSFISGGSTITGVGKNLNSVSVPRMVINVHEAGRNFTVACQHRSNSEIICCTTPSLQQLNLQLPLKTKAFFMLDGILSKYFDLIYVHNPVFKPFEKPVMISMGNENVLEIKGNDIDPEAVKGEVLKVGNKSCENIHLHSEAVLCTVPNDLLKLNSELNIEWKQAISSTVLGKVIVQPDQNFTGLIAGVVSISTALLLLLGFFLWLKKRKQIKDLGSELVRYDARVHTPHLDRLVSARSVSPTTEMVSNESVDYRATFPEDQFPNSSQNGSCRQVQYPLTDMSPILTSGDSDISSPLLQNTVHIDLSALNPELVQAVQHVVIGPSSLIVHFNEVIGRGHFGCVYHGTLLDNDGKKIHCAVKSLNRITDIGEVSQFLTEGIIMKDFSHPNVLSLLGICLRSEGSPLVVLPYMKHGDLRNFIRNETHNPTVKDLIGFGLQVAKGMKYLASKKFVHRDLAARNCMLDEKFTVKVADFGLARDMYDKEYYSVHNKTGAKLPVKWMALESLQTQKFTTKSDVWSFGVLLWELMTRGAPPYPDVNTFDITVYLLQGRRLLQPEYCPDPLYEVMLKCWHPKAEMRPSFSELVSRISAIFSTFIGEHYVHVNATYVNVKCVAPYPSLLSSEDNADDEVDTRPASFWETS
Procedure Text: Whole cell ELISA of peptide-displaying phage
Format: cell-based
Condition: phage isolate; 3T3 cells expressing human cMet vs. non-expressing 3T3 cells
Measured Parameter: WC ELISA (fold over background)

# input # return recorded WC ELISA for input AGWYNCSGENFWNCKWIGT (Synthetically generated cMet-binding peptide sequence) [SEQ ID NO: 082]
# output 1.43

# input # return recorded WC ELISA for input GDYRMCQISDMWGNYECSSDDP (Synthetically generated cMet-binding peptide sequence) [SEQ ID NO: 400]
# output 1.30

# input # return recorded WC ELISA for input AGWGWCSGPPMFMCTEYGT (Synthetically generated cMet-binding peptide sequence) [SEQ ID NO: 099]
# output 1.30

# input # return recorded WC ELISA for input GSSARCDELINDFHSCLVMAP (Synthetically generated cMet-binding peptide sequence) [SEQ ID NO: 375]
# output 1.33

# input # return recorded WC ELISA for input AQVGESLDDGWTFFSDKWFDFF (Synthetically generated cMet-binding peptide sequence) [SEQ ID NO: 485]
# output 1.17

# input # return recorded WC ELISA for input AQFPLEFDVPNFSYHWLVSFNP (Synthetically generated cMet-binding peptide sequence) [SEQ ID NO: 460]
# output 1.27

# input # return recorded WC ELISA for input AGHGTCRGWPTFECIYFGT (Synthetically generated cMet-binding peptide sequence) [SEQ ID NO: 064]
# output 1.40

# input # return recorded WC ELISA for input AGWSDCLGPPQFTCVHWGT (Synthetically generated cMet-binding peptide sequence) [SEQ ID NO: 083]
# output 1.33

# input # return recorded WC ELISA for input AGSIACTGWPYFSCIDLGT (Synthetically generated cMet-binding peptide sequence) [SEQ ID NO: 088]
# output 1.10

# input # return recorded WC ELISA for input AGNYWCSGPPSFICHAVGT (Synthetically generated cMet-binding peptide sequence) [SEQ ID NO: 091]
# output 1.27

# input # return recorded WC ELISA for input GSAGWCYTMNYVDQLCTYMAP (Synthetically generated cMet-binding peptide sequence) [SEQ ID NO: 387]
# output 1.43

# input # return recorded WC ELISA for input AGSWECTGPPSFHCQWYGT (Synthetically generated cMet-binding peptide sequence) [SEQ ID NO: 070]
# output 1.37

# input # return recorded WC ELISA for input AQWGAVDNDWYDWEMEQIWMFE (Synthetically generated cMet-binding peptide sequence) [SEQ ID NO: 491]
# output 1.23

# input # return recorded WC ELISA for input AQNAVVPPPMLWSIYWDYGREG (Synthetically generated cMet-binding peptide sequence) [SEQ ID NO: 457]
# output 1.37

# input # return recorded WC ELISA for input AGHTICQHKALGCPANGT (Synthetically generated cMet-binding peptide sequence) [SEQ ID NO: 041]
# output 1.27

# input # return recorded WC ELISA for input AGEIFCVGPPTFTCMWTGT (Synthetically generated cMet-binding peptide sequence) [SEQ ID NO: 096]
# output 1.27

# input # return recorded WC ELISA for input GSGMGCHQVNISTGDCAEDAP (Synthetically generated cMet-binding peptide sequence) [SEQ ID NO: 381]
# output 1.43

# input # return recorded WC ELISA for input AQSDHDHAHWGVKHWPFRRYQ (Synthetically generated cMet-binding peptide sequence) [SEQ ID NO: 482]
# output 1.20

# input # return recorded WC ELISA for input GSLYRCLGEASPTPPCAYEAP (Synthetically generated cMet-binding peptide sequence) [SEQ ID NO: 380]
# output 1.37

# input # return recorded WC ELISA for input AGDFICQGPPSFVCTNIGT (Synthetically generated cMet-binding peptide sequence) [SEQ ID NO: 097]
# output 1.27

# input # return recorded WC ELISA for input AGQFKCAGPPSFACWMTGT (Synthetically generated cMet-binding peptide sequence) [SEQ ID NO: 050]
# output 1.43

# input # return recorded WC ELISA for input GDSYNCSWDSKTFEVTCLYADP (Synthetically generated cMet-binding peptide sequence) [SEQ ID NO: 393]
# output 1.20

# input # return recorded WC ELISA for input AQHMDPAEWDWFIRIYSPVVNP (Synthetically generated cMet-binding peptide sequence) [SEQ ID NO: 487]
# output 1.80

# input # return recorded WC ELISA for input AGNLPCHWNMSVCDHQGT (Synthetically generated cMet-binding peptide sequence) [SEQ ID NO: 034]
# output 1.30

# input # return recorded WC ELISA for input AQAYEWWADESIFNHGYYWGHQ (Synthetically generated cMet-binding peptide sequence) [SEQ ID NO: 470]
# output 1.20

# input # return recorded WC ELISA for input AGFWDCGWMMQDCHMHGT (Synthetically generated cMet-binding peptide sequence) [SEQ ID NO: 045]
# output 1.33

----------
Target Entity: 3T3 cells that over-express human cMet (Homo sapiens, UniProt P08581)
Construct: expressed in transfected cells; host or cells: 3T3 cells
Procedure Text: Whole cell ELISA of peptide-displaying phage
Format: cell-based
Condition: phage isolate; 3T3 cells expressing human cMet vs. non-expressing 3T3 cells
Measured Parameter: WC ELISA (fold over background)

# input # return recorded WC ELISA for input AGLLGCWDMPMECTGEGT (Synthetically generated cMet-binding peptide sequence) [SEQ ID NO: 036]
# output 1.27

# input # return recorded WC ELISA for input AGQAVCEWGPFWCQMQGT (Synthetically generated cMet-binding peptide sequence) [SEQ ID NO: 031]
# output 1.30

# input # return recorded WC ELISA for input AGVNSCLGPPTFECYQMGT (Synthetically generated cMet-binding peptide sequence) [SEQ ID NO: 076]
# output 1.20

# input # return recorded WC ELISA for input AGLPKCSGPPWFSCYYGGT (Synthetically generated cMet-binding peptide sequence) [SEQ ID NO: 066]
# output 1.30

# input # return recorded WC ELISA for input AGTWHCAGPPWFTCYMDGT (Synthetically generated cMet-binding peptide sequence) [SEQ ID NO: 069]
# output 1.30

# input # return recorded WC ELISA for input GSDMNCTVLAQDQIFCFREAP (Synthetically generated cMet-binding peptide sequence) [SEQ ID NO: 386]
# output 1.37

# input # return recorded WC ELISA for input AGGFACGPPWDICWMFGT (Synthetically generated cMet-binding peptide sequence) [SEQ ID NO: 011]
# output 1.30

----------
Target Entity: 3T3 cells that over-express human cMet (Homo sapiens, UniProt P08581)
Construct: expressed in transfected cells; host or cells: 3T3 cells
Procedure Text: Whole cell ELISA of peptide-displaying phage
Assay type: cell-based
Condition: phage isolate; 3T3 cells expressing human cMet vs. non-expressing 3T3 cells
Description: Whole cell ELISAs were performed using 3T3 cells that over-express human cMet. […] Briefly, 96-well plates were seeded with 10^5 cells per well. The plates were centrifuged for 5 minutes at 1600 rpm to pellet the cells. The resulting cell layer was fixed with 0.1% (v/v) glutaraldehyde for 12 minutes at 37 C. […] The plates were washed with PBST. cMet-binding peptide-displaying phage were detected using an HRP-conjugated anti-M13 antibody.
Measured Parameter: WC ELISA (fold over background)

# input Tell me WC ELISA of AGYYHCIDDFPQCKWMGT (Synthetically generated cMet-binding peptide sequence) [SEQ ID NO: 017] when tested on 3T3 cells that over-express human cMet (Homo sapiens, UniProt P08581).
# output 1.37

# input Tell me WC ELISA of GSFNICPYQWCTLWAP (Synthetically generated cMet-binding peptide sequence) [SEQ ID NO: 010] when tested on 3T3 cells that over-express human cMet (Homo sapiens, UniProt P08581).
# output 1.37

# input Tell me WC ELISA of GSLIICWWSWCDKQAP (Synthetically generated cMet-binding peptide sequence) [SEQ ID NO: 009] when tested on 3T3 cells that over-express human cMet (Homo sapiens, UniProt P08581).
# output 1.27

# input Tell me WC ELISA of GSSTICPGTACVDHAP (Synthetically generated cMet-binding peptide sequence) [SEQ ID NO: 008] when tested on 3T3 cells that over-express human cMet (Homo sapiens, UniProt P08581).
# output 1.27

----------
Target Entity: cMet-Fc fusion protein (Homo sapiens)
Sequence (P08581 25-307 limits assumed): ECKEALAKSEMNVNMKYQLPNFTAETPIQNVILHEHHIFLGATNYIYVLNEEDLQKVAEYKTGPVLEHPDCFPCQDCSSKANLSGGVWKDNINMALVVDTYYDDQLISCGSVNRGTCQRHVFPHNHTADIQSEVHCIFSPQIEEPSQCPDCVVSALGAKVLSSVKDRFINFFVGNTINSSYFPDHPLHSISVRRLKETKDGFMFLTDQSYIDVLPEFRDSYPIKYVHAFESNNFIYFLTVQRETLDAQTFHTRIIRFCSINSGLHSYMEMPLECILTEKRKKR
Sequence (P08581 with tags, fused parts or gaps limits assumed): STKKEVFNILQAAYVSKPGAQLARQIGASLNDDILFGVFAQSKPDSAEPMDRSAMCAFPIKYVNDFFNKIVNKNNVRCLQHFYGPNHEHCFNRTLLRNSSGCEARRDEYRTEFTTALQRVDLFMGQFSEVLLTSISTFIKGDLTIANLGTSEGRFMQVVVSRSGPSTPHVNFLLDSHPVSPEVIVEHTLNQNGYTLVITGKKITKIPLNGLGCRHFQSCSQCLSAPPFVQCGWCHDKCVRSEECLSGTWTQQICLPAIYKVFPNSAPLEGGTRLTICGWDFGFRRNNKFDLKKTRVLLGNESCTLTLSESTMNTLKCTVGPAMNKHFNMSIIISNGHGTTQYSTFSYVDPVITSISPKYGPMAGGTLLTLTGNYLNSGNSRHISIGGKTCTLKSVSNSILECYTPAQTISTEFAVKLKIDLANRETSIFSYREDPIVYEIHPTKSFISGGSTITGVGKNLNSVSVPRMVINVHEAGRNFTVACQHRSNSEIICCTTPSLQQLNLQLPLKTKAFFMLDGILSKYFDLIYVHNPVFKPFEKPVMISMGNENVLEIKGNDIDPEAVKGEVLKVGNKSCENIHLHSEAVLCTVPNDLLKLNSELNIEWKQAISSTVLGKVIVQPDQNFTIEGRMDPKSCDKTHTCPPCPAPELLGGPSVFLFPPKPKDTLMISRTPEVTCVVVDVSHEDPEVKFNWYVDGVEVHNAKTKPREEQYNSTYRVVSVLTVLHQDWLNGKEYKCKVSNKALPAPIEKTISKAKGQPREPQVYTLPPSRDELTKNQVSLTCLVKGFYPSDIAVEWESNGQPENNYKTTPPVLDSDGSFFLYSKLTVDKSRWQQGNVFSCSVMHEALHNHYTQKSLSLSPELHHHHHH
Procedure Text: Protein phage ELISA: peptide-displaying phage binding to soluble cMet-Fc versus TRAIL-Fc
Condition: phage isolate; cMet-Fc vs. TRAIL-Fc
Measured Parameter: Protein ELISA (fold over background)

# input # return recorded Protein ELISA for input GSSHLCNPEFCHFTAP (Synthetically generated cMet-binding peptide sequence) [SEQ ID NO: 003]
# output 3.2

(1) GSRFHCWQGDLMQTYCMPMAP (Synthetically generated cMet-binding peptide sequence) [SEQ ID NO: 376]
(2) GSSARCDELINDFHSCLVMAP (Synthetically generated cMet-binding peptide sequence) [SEQ ID NO: 375]
# input Kindly identify the item with the lower Protein ELISA figure among these two: 1 and 2 Give the label under which the chosen entry appears.
# output 1
(1: 3.0 fold over background, 2: 4.3 fold over background)
